Source listed as patent US12616761B2.

target: CXCR4 (Homo sapiens, UniProt P61073); construct: expressed in transfected cells; host or cells: CHO:CXCR4 cells (gift from Drs. David McDermott and Xiaoyuan Chen, NIH); test: Competitive binding assay: [125I]SDF-1α displacement on CHO:CXCR4 cells; details: [125I]SDF-1α competition on CHO:CXCR4 cells; given as ranges; read-out: IC50 (nM), Binding Affinity to CXCR4
Sequence (P61073 whole entry): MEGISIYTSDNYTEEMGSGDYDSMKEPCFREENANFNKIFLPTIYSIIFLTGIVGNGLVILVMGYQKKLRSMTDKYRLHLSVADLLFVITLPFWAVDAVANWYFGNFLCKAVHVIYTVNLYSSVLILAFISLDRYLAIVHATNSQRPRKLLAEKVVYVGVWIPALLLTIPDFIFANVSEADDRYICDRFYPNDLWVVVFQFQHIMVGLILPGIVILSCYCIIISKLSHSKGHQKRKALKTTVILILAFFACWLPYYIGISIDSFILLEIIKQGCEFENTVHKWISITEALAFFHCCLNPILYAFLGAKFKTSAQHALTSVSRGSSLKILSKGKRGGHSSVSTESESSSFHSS
Positions of bridges follow the written chain, without caps; N, C: chain ends. Non-standard residues stand in square brackets, D forms with d. Residues, ends and D or L forms follow the SMILES beside them. 2Nal = N[C@@H](Cc1ccc2ccccc2c1)C(=O)O; Lys(iPr) = CC(C)NCCCC[C@H](N)C(=O)O
Quick reference for IC50 among some compounds

CC(C)NCCCC[C@H](NC(=O)[C@H]1CCC(=O)N[C@@H](Cc2ccccc2)C(=O)N[C@H](Cc2ccc(O)cc2)C(=O)N[C@@H](CCCCNC(C)C)C(=O)N[C@H](CCCNC(=N)N)C(=O)N[C@@H](Cc2ccc3ccccc3c2)C(=O)N[C@H](C)C(=O)N1)C(N)=O (F[dY][Lys(iPr)][dR][2Nal][dA][dE][Lys(iPr)]-NH2; lactam N-7)    50 to 100 nM

Entry CC(C)C[C@H]1NC(=O)[C@H](Cc2ccc3ccccc3c2)NC(=O)[C@@H](CCCNC(=N)N)NC(=O)[C@H](CCCCNC(C)C)NC(=O)[C@H](Cc2ccc(O)cc2)NC(=O)[C@H](Cc2ccccc2)NC(=O)CC[C@H](C(=O)N[C@@H](CCCCNC(C)C)C(N)=O)NC1=O (FY[Lys(iPr)][dR][2Nal][dL][dE][Lys(iPr)]-NH2; lactam N-7) ; assay system CXCR4 (Homo sapiens, UniProt P61073); IC50 recorded at 50 to 100 nM
